Target: HDAC2 (Homo sapiens (Human), UniProt Q92769)
Sequence (Q92769 whole entry): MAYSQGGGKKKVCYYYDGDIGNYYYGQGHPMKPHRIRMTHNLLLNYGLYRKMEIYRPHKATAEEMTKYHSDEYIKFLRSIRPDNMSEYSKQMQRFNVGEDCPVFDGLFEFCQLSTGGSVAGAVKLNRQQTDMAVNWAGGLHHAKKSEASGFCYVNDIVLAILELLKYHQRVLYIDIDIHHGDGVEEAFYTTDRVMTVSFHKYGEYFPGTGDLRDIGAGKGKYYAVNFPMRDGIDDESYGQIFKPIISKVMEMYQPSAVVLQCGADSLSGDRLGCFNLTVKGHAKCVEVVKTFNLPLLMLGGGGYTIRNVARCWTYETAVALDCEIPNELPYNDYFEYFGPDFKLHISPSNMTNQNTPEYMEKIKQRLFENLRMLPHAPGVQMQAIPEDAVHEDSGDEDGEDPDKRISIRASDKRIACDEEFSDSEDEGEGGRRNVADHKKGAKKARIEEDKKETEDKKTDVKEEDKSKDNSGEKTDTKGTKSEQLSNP
Experiment: HDAC enzyme assay, HDAC2
Type: biochemical
Conditions: 24 hours pre-incubation with enzyme; read-out: IC50 (nM) HDAC2
observable: IC50 (nM)
Answers are plain numbers, in nM.

The examples below pair each entry with its known result.
Nc1ccc(-c2cccs2)cc1NC(=O)c1cnc(NC2CCN(C(=O)N3CCCCC3)CC2)nc1 [Compound 009] = 145
Nc1ccc(-c2cccs2)cc1NC(=O)c1ccc(NC2CCN(c3ccccc3)CC2)cc1 [Compound 028] = 443
CN1CCN(C(=O)N2CCC(C)(Nc3ncc(C(=O)Nc4cc(-c5cccs5)ccc4N)cn3)CC2)CC1 [Compound 011] = 32
Nc1ccc(-c2ccccc2)cc1NC(=O)c1cnc(N(c2ccccc2)C2CCN(C(=O)Cc3c[nH]c4ccccc34)CC2)nc1 [Compound 034] = 346
CC1(Nc2ccc(C(=O)Nc3cc(-c4cccnc4)ccc3N)cc2)CCN(C(=O)N2CCOCC2)CC1 [Compound 031] = 71

-- ask Form field: reported IC50 of Nc1ccc(-c2cccs2)cc1NC(=O)c1ccc(NC2CCN(C(=O)C3(O)CCCC3)CC2)cc1 [Compound 025]
-- reply 26

Where do the numbers come from? From patent US9790180B2.
